- Tested on: Escherichia coli
- protocol: Antibacterial activity against Escherichia coli ATCC 11775 after 24 hrs by NCCLS method
- Type: functional
- study conditions: DSM 30083 = JCM 1649 = ATCC 11775, 24 h
Listed below: MIC values for each entry.
endpoint label: MIC

{"structure": "C=C[C@]1(C)C[C@@H](OC(=O)CSc2nc(NC(=O)CNC3CC3)c3cc[nH]c3n2)[C@]2(C)[C@H](C)CC[C@]3(CCC(=O)[C@H]32)[C@@H](C)[C@@H]1O", "endpoint label": "MIC", "recorded measurement": "> 64 µg/mL"}
{"structure": "C=C[C@]1(C)C[C@@H](OC(=O)CSc2nc(NC(=O)CN3CCNCC3)c3cc[nH]c3n2)[C@]2(C)[C@H](C)CC[C@]3(CCC(=O)[C@H]32)[C@@H](C)[C@@H]1O", "endpoint label": "MIC", "recorded measurement": "> 64 µg/mL"}
{"structure": "C=C[C@]1(C)C[C@@H](OC(=O)CSc2nc(NC(=O)CN3CCC(N4CCCCC4)CC3)c3cc[nH]c3n2)[C@]2(C)[C@H](C)CC[C@]3(CCC(=O)[C@H]32)[C@@H](C)[C@@H]1O", "endpoint label": "MIC", "recorded measurement": "64 µg/mL"}
